Type: physicochemical
Conditions: pH 7
property measured: Residual amount

Answered cases to consult:
{"chemical smiles": "COc1cc(-c2oc3cc(O)cc(O)c3c(=O)c2O)cc(OC)c1O", "Residual amount": "<<10%"}
{"chemical smiles": "COc1cc(O)c2c(=O)c(OC)c(-c3cc(OC)c(OC)c(OC)c3)oc2c1", "Residual amount": "<<10%"}
{"chemical smiles": "CC(=O)Oc1c(-c2cc(O)c(O)c(O)c2)oc2cc(O)cc(O)c2c1=O", "Residual amount": "≈100%"}
{"chemical smiles": "O=c1c(O)c(-c2cc(O)c(O)c(O)c2)oc2cc(O)cc(O)c12", "Residual amount": "<<10%"}

Now, please, on to the next molecule.
I am curious: what Residual amount value has been reported for "COc1cc(-c2oc3cc(O)cc(O)c3c(=O)c2O)cc(O)c1O" ?
<<10%
